Below, each entry is listed alongside its reported number of living cells.
system: human breast adenocarcinoma MDA-MB-231 cell line; assay: Cytotoxicity: cell growth inhibition in cultures, viable cells counted by trypan blue exclusion; type: cell-based; conditions: sodium salt in saline; final 4 × 10^−8 mol/L; day 1; three days

CC1=C(/C=C/C(C)=C/C=C/C(C)=C/C(=O)N[C@@H](CS(=O)O)C(=O)O)C(C)(C)CCC1    39.6 ± 1.75 × 10^3

// next entry
Sample `CC1=C(/C=C/C(C)=C/C=C/C(C)=C\C(=O)N[C@@H](CS(=O)O)C(=O)O)C(C)(C)CCC1` , system: human breast adenocarcinoma MDA-MB-231 cell line. Its number of living cells is 39.6 ± 2.70 × 10^3
